- assay system: hSERT (Homo sapiens)
- Construct: expressed in transfected cells
- Sequence (P31645 whole entry): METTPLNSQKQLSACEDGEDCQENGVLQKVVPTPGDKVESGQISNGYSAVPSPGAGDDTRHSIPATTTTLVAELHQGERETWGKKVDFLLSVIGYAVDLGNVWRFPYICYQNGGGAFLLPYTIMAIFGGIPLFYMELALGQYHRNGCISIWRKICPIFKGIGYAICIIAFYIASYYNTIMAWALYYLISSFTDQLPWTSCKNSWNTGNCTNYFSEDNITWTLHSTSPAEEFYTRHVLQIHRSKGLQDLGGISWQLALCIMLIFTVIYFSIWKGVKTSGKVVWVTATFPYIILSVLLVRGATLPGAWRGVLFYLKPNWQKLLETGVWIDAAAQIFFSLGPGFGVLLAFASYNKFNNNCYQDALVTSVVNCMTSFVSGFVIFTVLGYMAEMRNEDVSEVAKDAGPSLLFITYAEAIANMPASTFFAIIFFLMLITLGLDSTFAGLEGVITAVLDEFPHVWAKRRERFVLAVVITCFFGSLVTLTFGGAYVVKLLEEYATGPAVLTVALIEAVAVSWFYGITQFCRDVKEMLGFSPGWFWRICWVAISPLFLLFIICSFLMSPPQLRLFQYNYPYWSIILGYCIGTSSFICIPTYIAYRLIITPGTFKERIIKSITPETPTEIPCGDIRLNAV
- experimental details: SERT assay (Compounds of Formula II), transporter uptake assay kit
- Type: cell-based
Please note: Y applies when inhibition at 1 µM is 90% or greater, and N applies otherwise.

> print(dat)
                                   compound  category.label
1  COc1ccc([C@@]23C=C[C@@H](OC(=O)CN)C[C@@H]2N(C)CC3)cc1OC               N
2  COc1ccc([C@@]23C=C[C@@H](OC(=O)C(C)N)C[C@@H]2N(C)CC3)cc1OC (some centres unmarked)               N
3  COc1ccc([C@@]23CC[C@@H](OC(=O)C(C)C)C[C@@H]2N(C)CC3)cc1OC               Y
4  COc1ccc([C@@]23CC[C@@H](OC(=O)CN)C[C@@H]2N(C)CC3)cc1OC               Y
5  CCC(=O)O[C@@H]1CC[C@@]2(c3ccc(OC)c(OC)c3)CCN(C)[C@H]2C1               Y
6  COc1ccc([C@@]23CC[C@@H](OC(=O)CCC(=O)O)C[C@@H]2N(C)CC3)cc1OC               N

---

- assay system: human recombinant PDE-4B1 (Homo sapiens, UniProt Q07343)
- Sequence (Q07343 whole entry): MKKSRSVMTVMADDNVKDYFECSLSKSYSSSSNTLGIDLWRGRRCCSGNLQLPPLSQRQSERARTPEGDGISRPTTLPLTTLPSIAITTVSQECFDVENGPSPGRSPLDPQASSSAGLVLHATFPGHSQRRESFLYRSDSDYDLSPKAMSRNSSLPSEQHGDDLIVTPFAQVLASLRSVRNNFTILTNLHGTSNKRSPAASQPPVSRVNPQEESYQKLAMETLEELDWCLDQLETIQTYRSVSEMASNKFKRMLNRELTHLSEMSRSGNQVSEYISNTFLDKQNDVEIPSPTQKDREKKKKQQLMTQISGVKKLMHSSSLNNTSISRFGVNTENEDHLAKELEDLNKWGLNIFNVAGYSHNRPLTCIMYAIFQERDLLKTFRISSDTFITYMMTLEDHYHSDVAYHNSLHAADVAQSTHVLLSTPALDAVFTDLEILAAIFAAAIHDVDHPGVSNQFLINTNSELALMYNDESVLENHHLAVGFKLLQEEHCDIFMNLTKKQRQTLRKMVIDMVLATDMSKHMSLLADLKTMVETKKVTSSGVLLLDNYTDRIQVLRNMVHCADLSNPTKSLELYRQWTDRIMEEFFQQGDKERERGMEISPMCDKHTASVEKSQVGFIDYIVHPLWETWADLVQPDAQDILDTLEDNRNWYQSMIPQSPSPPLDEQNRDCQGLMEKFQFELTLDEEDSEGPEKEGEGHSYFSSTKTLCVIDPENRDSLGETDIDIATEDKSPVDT
- experimental details: PDE4-B1 assay (Compounds of Formula I), SPA
- Assay type: biochemical
- assay context: 4-parameter logistical fit, two technical replicates
quantity: IC50

> print(dat)
                                    molecule  quantity  result.value
 1  COc1ccc([C@@]23CCC(=O)C[C@@H]2N(C)CC3)cc1O      IC50       > 30 µM
 2  CN1CC[C@]2(c3ccc(OCC4CC4)c(O)c3)CCC(=O)C[C@H]12      IC50       > 30 µM
 3    COc1ccc([C@]23CCC(=O)C=C2N(C)CC3)cc1OC      IC50        > 3 µM
 4  C=CCOc1cc([C@@]23CCC(=O)C=C2N(C)CC3)ccc1OC      IC50        > 3 µM
 5  CCOc1ccc(C23C=CC(=O)CC2N(C)CC3)cc1OCC (centres unmarked)      IC50        < 3 µM
 6   COc1ccc([C@@]23CCC(=O)C=C2N(C)CC3)cc1OC      IC50        > 3 µM
 7  C=CCOc1cc([C@@]23CCC(=O)C[C@@H]2N(C)CC3)ccc1OCC1CC1      IC50       > 30 µM
 8  COc1ccc([C@@]23CCC(=O)C=C2N(C)CC3)cc1OC1CCCC1      IC50        > 3 µM
 9  CN1CC[C@]2(c3ccc(OCC4CC4)c(OCC4CC4)c3)CCC(=O)C[C@H]12      IC50       > 30 µM
10  COc1cc([C@@]23CCC(=O)C[C@@H]2N(C)CC3)ccc1OCC1CC1      IC50       > 30 µM
11  CCCCOc1cc([C@@]23CCC(=O)C[C@@H]2N(C)CC3)ccc1OCC1CC1      IC50       > 30 µM
12  COc1ccc([C@@]23CCC(=O)C[C@@H]2N(C)CC3)cc1OCC(F)(F)F      IC50        7.1 µM
13  CN1CC[C@]2(c3ccc(OCC4CC4)c(OC4CCCC4)c3)CCC(=O)C[C@H]12      IC50       > 30 µM
14  CSc1cc([C@@]23CCC(=O)C[C@@H]2N(C)CC3)ccc1OC(C)C      IC50       > 30 µM
15  CCOc1cc([C@@]23CCC(=O)C[C@@H]2N(C)CC3)ccc1OCC1CC1      IC50       > 30 µM
16  C#CCOc1cc([C@@]23CCC(=O)C[C@@H]2N(C)CC3)ccc1OC      IC50        < 3 µM
17  CCSc1cc([C@@]23CCC(=O)C[C@@H]2N(C)CC3)ccc1OC      IC50        5.2 µM

Each recorded value in this set is attributed to patent US20250091992A1.
